molecular target: UniProtKB O14746; assay: Inhibition of telomerase (unknown origin)
Sequence (O14746 whole entry): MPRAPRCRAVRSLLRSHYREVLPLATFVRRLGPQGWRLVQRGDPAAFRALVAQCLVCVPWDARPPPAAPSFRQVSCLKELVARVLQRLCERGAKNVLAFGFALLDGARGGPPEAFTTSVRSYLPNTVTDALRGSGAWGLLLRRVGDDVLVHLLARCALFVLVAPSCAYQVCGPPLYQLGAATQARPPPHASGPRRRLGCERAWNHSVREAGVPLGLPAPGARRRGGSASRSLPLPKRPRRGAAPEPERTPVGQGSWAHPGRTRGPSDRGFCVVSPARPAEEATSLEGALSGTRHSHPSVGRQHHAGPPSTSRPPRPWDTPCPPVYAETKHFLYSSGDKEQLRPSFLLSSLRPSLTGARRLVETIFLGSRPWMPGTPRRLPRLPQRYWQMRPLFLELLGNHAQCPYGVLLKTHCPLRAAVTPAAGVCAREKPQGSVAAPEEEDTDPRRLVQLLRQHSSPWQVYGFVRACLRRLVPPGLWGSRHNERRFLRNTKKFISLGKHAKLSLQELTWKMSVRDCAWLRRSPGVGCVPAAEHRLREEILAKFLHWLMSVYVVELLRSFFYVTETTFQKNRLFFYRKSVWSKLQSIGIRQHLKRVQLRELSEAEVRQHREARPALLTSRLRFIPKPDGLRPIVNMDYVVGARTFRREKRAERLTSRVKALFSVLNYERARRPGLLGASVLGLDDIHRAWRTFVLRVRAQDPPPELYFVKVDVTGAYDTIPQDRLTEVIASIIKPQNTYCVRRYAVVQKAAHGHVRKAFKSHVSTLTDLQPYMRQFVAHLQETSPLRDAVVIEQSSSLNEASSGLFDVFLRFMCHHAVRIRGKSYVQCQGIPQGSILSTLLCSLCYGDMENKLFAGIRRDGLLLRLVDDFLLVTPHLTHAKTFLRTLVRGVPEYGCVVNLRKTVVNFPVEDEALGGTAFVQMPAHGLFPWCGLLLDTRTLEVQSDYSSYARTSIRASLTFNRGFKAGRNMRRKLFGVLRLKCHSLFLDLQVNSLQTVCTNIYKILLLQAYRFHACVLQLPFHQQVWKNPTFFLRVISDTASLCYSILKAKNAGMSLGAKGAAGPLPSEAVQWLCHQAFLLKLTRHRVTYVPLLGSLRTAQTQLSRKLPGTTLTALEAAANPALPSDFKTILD
pIC50: −log10 of the molar value.
readout label: pIC50

1. Fc1ccc(CSc2nnc(-c3cnccn3)n2-c2ccccc2)cc1 ... 4.82

----------
tested on: NCI-H460; assay: Cytotoxicity against human NCI-H460 cells assessed as reduction in cell growth incubated for 72 hrs by CCK-8 assay; type: functional, cell-based; conditions: NCI-H460, 72 h
pIC50: −log10 of the molar value.
readout label: pIC50

1) CC(C)N1C[C@H]2C[C@@H]1CN2c1ccc(Nc2nc(-c3ccc4cn[nH]c4c3)cn3ccnc23)cc1 ... 5.83

----------
tested on: 4T1; test: Cytotoxicity against mouse 4T1 cells assessed as reduction in cell growth incubated for 48 hrs by MTT assay; type: functional, cell-based; conditions: 4T1, 48 h
readout label: IC50 (µM)

1) Cc1nc(C)c(C(=O)NCCCCCCCCCCCCNOC(=O)c2ccc3cc[nH]c3c2)nc1C ... 1.16

----------
assay: Antiproliferative activity against mouse L929 cells assessed as inhibition of cell growth incubated for 5 days by MTT assay; assay type: toxicity, cell-based
readout label: IC50 at 5 days (µM)

1) Cc1nc(C)c(C(=O)NCCCCCCCCCCCCNOC(=O)c2ccc3cc[nH]c3c2)nc1C ... 3.16
